assayProcedure: Effect of temperature (and pH) on the stability of the solution (purity)
Format: physicochemical
conditions: 7% solution in water, pH 6.0, day 21, 25° C.
Please provide measured Purity(%) at day 21 (25° C.) for the entries that follow.
Field format: number, assumed %, no unit text.

Exercise: # Purity(%) at day 21 (25° C.) lookup, item CCN(CC)CCOC(=O)CC1=C(C)C(=Cc2ccc([S+](C)[O-])cc2)c2ccc(F)cc21.Cl (stereo not drawn)
Key: 88.9

Exercise: Field entry: CCN(CC)CCOC(=O)Cc1ccc(C(=O)c2ccc(C)cc2)n1C.Cl
Key: 79.5

Exercise: Field entry: CCN(CC)CCOC(=O)CCc1nc(-c2ccccc2)c(-c2ccccc2)o1.Cl
Key: 73.9

Exercise: Field entry: CCN(CC)CCOC(=O)C(C)c1ccc(-c2ccccc2)c(F)c1.Cl (racemic)
Key: 90.5

Exercise: Field entry: CCN(CC)CCOC(=O)C(C)c1ccc2oc(-c3ccc(Cl)cc3)nc2c1.Cl (stereo not drawn)
Key: 86.8

Exercise: Field entry: CCN(CC)CCOC(=O)COC(=O)Cc1c(C)n(C(=O)c2ccc(Cl)cc2)c2ccc(OC)cc12.Cl
Key: 86.9

Exercise: Field entry: CCN(CC)CCOC(=O)Cc1c(C)n(C(=O)c2ccc(Cl)cc2)c2ccc(OC)cc12.Cl
Key: 87.8

Exercise: Field entry: CCN(CC)CCOC(=O)COc1nn(Cc2ccccc2)c2ccccc12.Cl
Key: 78.9

Exercise: Field entry: CCN(CC)CCOC(=O)CCc1ccc2cc(OC)ccc2c1.Cl
Key: 88.8

----------
assayProcedure: Effect of temperature (and pH) on the stability of the solution (purity)
Format: physicochemical
conditions: 7% solution in water, pH 5.0, day 21, 40° C.
assayReadout: Purity(%) at day 21 (40° C.)
Field format: number, assumed %, no unit text.

Exercise: # Purity(%) at day 21 (40° C.) lookup, item CCN(CC)CCOC(=O)CCc1nc(-c2ccccc2)c(-c2ccccc2)o1.Cl
Key: 30.1

Exercise: Field entry: CCN(CC)CCOC(=O)CCc1ccc2cc(OC)ccc2c1.Cl
Key: 45.8

Exercise: Field entry: CCN(CC)CCOC(=O)COc1nn(Cc2ccccc2)c2ccccc12.Cl
Key: 36.1

Exercise: Field entry: CCN(CC)CCOC(=O)CC1=C(C)C(=Cc2ccc([S+](C)[O-])cc2)c2ccc(F)cc21.Cl (stereo not shown)
Key: 38.9

----------
Please provide measured Purity(%) at day 21 (5° C.) for the entries that follow.
assayProcedure: Effect of temperature (and pH) on the stability of the solution (purity)
Type: physicochemical
conditions: 7% solution in water, pH 3.7, day 21, 5° C.
Field format: number, assumed %, no unit text.

Exercise: # Purity(%) at day 21 (5° C.) lookup, item CCN(CC)CCOC(=O)CCc1nc(-c2ccccc2)c(-c2ccccc2)o1.Cl
Key: 97.8

Exercise: Field entry: CCN(CC)CCOC(=O)Cc1c(C)n(C(=O)c2ccc(Cl)cc2)c2ccc(OC)cc12.Cl
Key: 97.7

Exercise: Field entry: CCN(CC)CCOC(=O)COc1nn(Cc2ccccc2)c2ccccc12.Cl
Key: 97.5

Exercise: Field entry: CCN(CC)CCOC(=O)C(C)c1ccc2oc(-c3ccc(Cl)cc3)nc2c1.Cl (centres unmarked)
Key: 97.6

Exercise: Field entry: CCN(CC)CCOC(=O)Cc1ccc(C(=O)c2ccc(C)cc2)n1C.Cl
Key: 96.4

Exercise: Field entry: CCN(CC)CCOC(=O)CC1=C(C)C(=Cc2ccc([S+](C)[O-])cc2)c2ccc(F)cc21.Cl (centres unmarked)
Key: 97.3

Exercise: Field entry: CCN(CC)CCOC(=O)COC(=O)Cc1c(C)n(C(=O)c2ccc(Cl)cc2)c2ccc(OC)cc12.Cl
Key: 98.2

Exercise: Field entry: CCN(CC)CCOC(=O)CCc1ccc2cc(OC)ccc2c1.Cl
Key: 97.7
